src = PubChem BioAssay (NCI)

Answer each item with its documented TGI.
Tested on: SNB-19 CNS
assay.overview: NCI tumour cell line growth inhibition, 48 h
*1 amine or outer side, *2 acyl side, *3 side chain or, on linkers, in order; H or OH if unused. Where a SMILES comes first, the peptide text is derived from it. [ ]: non-standard residue; d: D form. X33 = C=CCC(O[*:1])C(=O)[*:2]; NMeV = CN[CH](C(=O)O)C(C)C; NMeA = CN[CH](C)C(=O)O; βAla = NCCC(=O)O

Quick one: TGI of CCC1CCc2c(OC)ccc(OCC(=O)O)c2C1=O (stereo not drawn) ? > 100 µM

Quick one: TGI of COc1ccc(-c2cc(=O)c3cc4c(cc3[nH]2)OCO4)cc1 ? > 100 µM

Quick one: TGI of C=CCC1OC(=O)CCNC(=O)C(C)N(C)C(=O)C(C(C)C)N(C)C(=O)C(C(C)CC)NC(=O)C2CCCN2C1=O (stereo not drawn) (cyclo([X33]PI[NMeV][NMeA][βAla]); configuration not given here) ? > 100 µM
